Item-by-item account of IC50
- Tgt: KRasG12C (M1-K169, biotinylated on the N-terminus) (Homo sapiens (Human), UniProt P01116, G12C)
- Measurement Protocol: Covalent competition assay: scintillation proximity assay (SPA) quantifying covalent modification of KRASG12C
- Applied Conditions: competition with radiolabeled covalent probe (Compound B/Compound A), 2 hours incubation, 10 nM KRasG12C
Observed Property: IC50 (nM)

C=CC(=O)N1CC2(CC(n3nc(N4CCn5ccnc5C4)c(-c4c(Cl)c(C)cc5[nH]ncc45)c3C)C2)C1 (single isomer, unassigned) [Example 19b] : 34700
C=CC(=O)N1CC2(CC(n3nc(N4CCN(C[C@H]5COCCO5)CC45CCC5)c(-c4c(Cl)c(C)cc5[nH]ncc45)c3C)C2)C1 (single isomer, unassigned) [Example 189b] : 15
C=CC(=O)N1CC2(CC(n3nc(N4CCC(CN5CC6CC(C5)O6)CC4(C)C)c(-c4c(Cl)c(Cl)cc5[nH]ncc45)c3C)C2)C1 (single isomer, unassigned) [Example 229b] : 11
C=CC(=O)N1CC2(CC(n3nc(N4CCN(C5COC5)CC4(C)C)c(-c4c(Cl)c(C)cc5[nH]ncc45)c3C)C2)C1 (single isomer, unassigned) [Example 67b] : 38
C=CC(=O)N1CC2(CC(n3nc(N4CC[C@@H](CN(C5COC5)C5COC5)CC4(C)C)c(-c4c(Cl)c(Cl)cc5[nH]ncc45)c3C)C2)C1 (single isomer, unassigned) [Example 282a] : 1500
C=CC(=O)N1CC2(CC(n3nc(N4CC[C@@H](CN5CCCC6CN(C)C(=O)C65)CC4(C)C)c(-c4c(Cl)c(Cl)cc5[nH]ncc45)c3C)C2)C1 (single isomer, unassigned) [Example 261b] : 15
